Could you please report measured IC50 for the items listed next?
- studyTarget: recombinant eIF4E (Homo sapiens (Human))
- Sequence (P06730 whole entry): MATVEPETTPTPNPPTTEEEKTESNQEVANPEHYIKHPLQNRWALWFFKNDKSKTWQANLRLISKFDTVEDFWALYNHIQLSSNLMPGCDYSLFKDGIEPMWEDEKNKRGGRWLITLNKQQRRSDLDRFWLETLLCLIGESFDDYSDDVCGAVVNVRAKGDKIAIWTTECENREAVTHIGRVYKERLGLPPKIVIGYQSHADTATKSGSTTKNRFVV
- test: Fluorescence polarization competition assay for eIF4E binding potency
- details: fluorescence polarization competition, 75 nM recombinant eIF4E, 20 nM EDA-m7GDP-ATTO-550; IC50 class; read-out: elF4E FP

Provide IC50 value for the following compound: Cc1cc(-c2cc(Cl)ccc2OCCn2c(C)nc3cc(C(F)(F)F)c(CN4CCNCC4)c(C#N)c3c2=O)c2scc(C(=O)O)c2n1 [compound 649]
< 50 nM

Provide IC50 value for the following compound: Cc1nc2cc(C(F)(F)F)c(N3CCN(CCF)CC3)c(C#N)c2c(=O)n1CCOc1ccc(Cl)cc1-c1ccnc2c(C(=O)O)csc12 [compound 655]
< 50 nM

Provide IC50 value for the following compound: Cc1nc2cnc(N(C)C34CCC(N(C)CCF)(CC3)C4)c(C#N)c2c(=O)n1CC#Cc1ccc(Cl)cc1-c1ccnc2c(C(=O)O)csc12 [compound 1106]
< 50 nM

Provide IC50 value for the following compound: O=C(O)c1cccc(-c2cc(Cl)ccc2OCCc2ccnc3nc(Nc4ccccc4)[nH]c(=O)c23)c1 [compound 176]
< 50 nM

Provide IC50 value for the following compound: Cc1cc(-c2cc(Cl)ccc2OCCn2c(C)nc3cc(C(F)(F)F)c(-c4ncc(F)cn4)c(C#N)c3c2=O)c2scc(C(=O)O)c2n1 [compound 966]
< 50 nM

Provide IC50 value for the following compound: Cc1nc2cc(C(F)(F)F)cc(C(F)F)c2c(=O)n1CCOc1ccc(Cl)cc1-c1ccnc2c(C(=O)O)csc12 [compound 220]
50 to 1000 nM

Provide IC50 value for the following compound: Cc1cc(-c2cc(Cl)ccc2OCCn2c(C)nc3c(F)cc(Cl)c(C#N)c3c2=O)c2scc(C(=O)O)c2n1 [compound 588]
< 50 nM

Provide IC50 value for the following compound: Cc1nc2cc(C(F)(F)F)c(N3CCN(C)CC3)c(C#N)c2c(=O)n1CCOc1ccc(Cl)cc1-c1ccnc2cc(Cl)sc12 [compound 1246]
50 to 1000 nM

Provide IC50 value for the following compound: Cc1nc2c(N3CCN(CCF)C4CC43)ncc(C#N)c2c(=O)n1CCOc1ccc(Cl)cc1-c1ccnc2c(C(=O)O)csc12 (centres unmarked) [compound 817]
< 50 nM

Provide IC50 value for the following compound: C#Cc1ccc(C#N)c2c(=O)n(CCOc3ccc(Cl)cc3-c3ccnc4c(C(=O)O)csc34)c(C)nc12 [compound 211]
< 50 nM

Provide IC50 value for the following compound: Cc1cc(-c2cc(Cl)ccc2OCCn2c(C)nc3c(C)nc(N4CCN(C)CC4)c(C#N)c3c2=O)c2scc(C(=O)O)c2n1 [compound 875]
< 50 nM

Provide IC50 value for the following compound: Cc1cccc(-c2ncc3nc(C)n(CCOc4ccc(Cl)cc4-c4cc(C)nc5c(C(=O)O)csc45)c(=O)c3c2C#N)c1 [compound 945]
< 50 nM

Provide IC50 value for the following compound: Cc1cc(-c2cc(Cl)ccc2OCCn2c(C)nc3cc(OC(F)F)c(F)c(C#N)c3c2=O)c2scc(C(=O)O)c2n1 [compound 585]
< 50 nM

Provide IC50 value for the following compound: Cc1nc2cnc(N(C)C3CCN(CC(C)(C)F)CC3)c(C#N)c2c(=O)n1CC#Cc1ccc(Cl)cc1-c1ccnc2c(C(=O)O)csc12 [compound 1142]
< 50 nM

Provide IC50 value for the following compound: Cc1cc(-c2cc(Cl)ccc2OCCn2c(C)nc3cc(C(F)(F)F)c(-n4cccn4)c(C#N)c3c2=O)c2scc(C(=O)O)c2n1 [compound 633]
< 50 nM

Provide IC50 value for the following compound: Cc1nc2cc(C(F)(F)F)cc(C#N)c2c(=O)n1CCOc1ccc(Cl)cc1-c1snc2c(C(=O)O)csc12 [compound 265]
50 to 1000 nM

Provide IC50 value for the following compound: Cc1nc2cc(C(F)(F)F)cc(C#N)c2c(=O)n1CCOc1ccc(Cl)cc1-c1ccnc2c(O)csc12 [compound 663]
50 to 1000 nM

Provide IC50 value for the following compound: N#Cc1cc2c(=O)n(CCOc3ccc(Cl)cc3-c3cc4c(c(C(=O)O)c3)OCO4)cnc2cn1 [compound 96]
> 1000 nM

Provide IC50 value for the following compound: Cc1cc(-c2c(C(F)(F)F)cc3nc(C)n(CCOc4ccc(Cl)cc4-c4cc(C)nc5c(C(=O)O)csc45)c(=O)c3c2C#N)nc(C)n1 [compound 963]
< 50 nM

Provide IC50 value for the following compound: O=C(O)c1cccc(-c2cc(Cl)ccc2OCCn2cnc3cc(F)ccc3c2=O)c1 [compound 3]
> 1000 nM

Provide IC50 value for the following compound: O=C(O)c1cccc(-c2cc(Cl)ccc2OCCn2ccc3cnccc3c2=O)c1 [compound 5]
> 1000 nM

Provide IC50 value for the following compound: Cc1cc(-c2cc(Cl)ccc2OCCn2c(C)nc3c(-c4ccccc4)nc(C4CC4)c(C#N)c3c2=O)c2scc(C(=O)O)c2n1 [compound 910]
< 50 nM

Provide IC50 value for the following compound: Cc1cc(-c2cc(Cl)ccc2OCCn2c(C)nc3cc(C(F)(F)F)c(N4CC(O)C4)nc3c2=O)c2scc(C(=O)O)c2n1 [compound 797]
< 50 nM

Provide IC50 value for the following compound: Cc1cc(-c2cc(Cl)ccc2OCCn2c(C)nc3c(C)nc(-c4cc(F)cnc4C)c(C#N)c3c2=O)c2scc(C(=O)O)c2n1 [compound 441]
< 50 nM

Provide IC50 value for the following compound: Cc1csc2c(-c3cc(Cl)ccc3OCCn3c(C)nc4cc(C(F)(F)F)c(N5CCN(C)CC5)c(C#N)c4c3=O)ccnc12 [compound 1249]
50 to 1000 nM

Provide IC50 value for the following compound: Cc1cc(-c2cc(Cl)ccc2OCCn2c(C)nc3cnc(C4(C(F)(F)F)CC4)c(C#N)c3c2=O)c2scc(C(=O)O)c2n1 [compound 839]
< 50 nM
